# PROTOCOL TEXT: Mean residence time in rat at 35 mg/kg, iv and 35 mg/kg, po
# Format: ADME, organism-based
# CONDITIONS USED: in vivo
TEST READOUT: MRT (h)
Respond with the bare value in h.

q: // lookup MRT for `C#Cc1cccc(Nc2ncnc3cc4c(cc23)OCCOCCOCCO4)c1`
a: 6.9

###

# PROTOCOL TEXT: Clearance in rat at 35 mg/kg, iv and 35 mg/kg, po
# Assay type: ADME, organism-based
# CONDITIONS USED: in vivo
TEST READOUT: clearance (L/h/kg)
Respond with the bare value in L/h/kg.

q: // lookup clearance for `C#Cc1cccc(Nc2ncnc3cc4c(cc23)OCCOCCOCCO4)c1`
a: 1.26
